System: MOLT-4 cancer cell line
Experiment: Cell proliferation assay, MOLT-4 cancer cell line (ATPlite);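 note: luminescence read-out, percent growth versus compound-free DMSO wells as maximum growth, start-of-incubation signal separating growth from cell death, IC50 from logistic curve fit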
Format: cell-based
Conditions: Homo sapiens, MOLT-4; 72 hours incubation, ATPlite 1Step; read-out: IC50 MOLT-4 cell proliferation
Measurement type: IC50

**Query** Answer with the recorded IC50 of CCc1nn(CCOC)c(CC)c1NC(=O)c1ccn2c1CCc1cnc(Nc3ccc(C(=O)N(C)CCCN(C)C)cc3OC)nc1-2 [Example 88] only.
**Result** 50 to 150 nM

**Query** Answer with the recorded IC50 of COc1cc(N2CCN(C)CC2)ccc1Nc1ncc2c(n1)-n1ccc(C(=O)Nc3c(C)nn(C)c3Cl)c1CC2 [Example 28] only.
**Result** 50 to 150 nM

**Query** Answer with the recorded IC50 of COCCn1nc(C)c(NC(=O)c2ccn3c2CCc2cnc(Nc4ccc(N5CCN(C)CC5)cc4OC)nc2-3)c1C [Example 26] only.
**Result** 50 to 150 nM

**Query** Answer with the recorded IC50 of COc1cc(N2CCN(C(=O)C3(C)CNC3)CC2)ccc1Nc1ncc2c(n1)-n1ccc(C(=O)Nc3c(C)cccc3C)c1CC2 [Example 130] only.
**Result** < 50 nM

**Query** Answer with the recorded IC50 of Cc1cc(N2CCN(C)CC2)ccc1Nc1ncc2c(n1)-n1ccc(C(=O)Nc3c(C)cccc3Cl)c1CC2 [Example 2] only.
**Result** < 50 nM

**Query** Answer with the recorded IC50 of Cc1cc(N2CCOCC2)ccc1Nc1ncc2c(n1)-n1ccc(C(=O)Nc3c(C)cccc3C)c1CC2 [Example 56] only.
**Result** < 50 nM

**Query** Answer with the recorded IC50 of Cc1cc(OC2CCN(C)CC2)ccc1Nc1ncc2c(n1)-n1ccc(C(=O)Nc3c(C)cccc3Cl)c1CC2 [Example 46] only.
**Result** < 50 nM

**Query** Answer with the recorded IC50 of COc1cc(OC2CCN(C)CC2)ccc1Nc1ncc2ccc3c(C(=O)Nc4c(C)cccc4C)ccn3c2n1 [Example 62] only.
**Result** < 50 nM

**Query** Answer with the recorded IC50 of CCc1nn(C2COC2)c(CC)c1NC(=O)c1ccn2c1CCc1cnc(Nc3ccc(N4CCN(C)CC4)cc3OC)nc1-2 [Example 142] only.
**Result** 50 to 150 nM

**Query** Answer with the recorded IC50 of CCc1cccc(CC)c1NC(=O)c1ccn2c1CCc1cnc(Nc3ccc(N4CCN(C)CC4)cc3C)nc1-2 [Example 67] only.
**Result** < 50 nM

**Query** Answer with the recorded IC50 of Cc1cccc(Cl)c1NC(=O)c1ccn2c1CCc1cnc(Nc3ccc(N4CCN(C)CC4)cc3OC(F)F)nc1-2 [Example 86] only.
**Result** < 50 nM

**Query** Answer with the recorded IC50 of COc1cc(N2CCOCC2)ccc1Nc1ncc2c(n1)-n1ccc(C(=O)Nc3c(C)cccc3Br)c1CC2 [Example 3] only.
**Result** 50 to 150 nM

**Query** Answer with the recorded IC50 of CCc1cccc(C)c1NC(=O)c1ccn2c1CCc1cnc(Nc3ccc(OC4CCN(C)CC4)cc3OC)nc1-2 [Example 40] only.
**Result** < 50 nM

**Query** Answer with the recorded IC50 of CCCCS(=O)(=O)N1CCN(c2ccc(Nc3ncc4c(n3)-n3ccc(C(=O)Nc5c(C)cccc5C)c3CC4)c(OC)c2)CC1 [Example 113] only.
**Result** < 50 nM
